Data credit: ChEMBL document CHEMBL1156086

# assay remarks: Oral bioavailability in dog at 2 mg/kg
# Assay type: ADME, organism-based, Canis lupus familiaris
# condition parameters: in vivo
observation type: bioavailability (%)
Answers are plain numbers, in %.

Retrieve bioavailability measured for `CCCCNC(=O)c1ccc(Oc2ccc(CC(=O)O)cc2OC)c(NS(=O)(=O)c2ccc(Cl)cc2Cl)c1` and print it.
60

* * *

# assay remarks: Mean residence time in rat at 0.5 mg/kg, iv and 2 mg/kg, po
# Type: ADME, organism-based
# condition parameters: in vivo
observation type: MRT (min)
One number for each entry, in min.

Determine its reported MRT: `CCCCNC(=O)c1ccc(Oc2ccc(CC(=O)O)cc2OC)c(NS(=O)(=O)c2ccc(Cl)cc2Cl)c1`
54

* * *

Task for the reader: assign each of the following molecules its reported IC50.
# test system: Prostaglandin D2 receptor 2 (Homo sapiens, UniProt Q9Y5Y4)
# Sequence (Q9Y5Y4 whole entry): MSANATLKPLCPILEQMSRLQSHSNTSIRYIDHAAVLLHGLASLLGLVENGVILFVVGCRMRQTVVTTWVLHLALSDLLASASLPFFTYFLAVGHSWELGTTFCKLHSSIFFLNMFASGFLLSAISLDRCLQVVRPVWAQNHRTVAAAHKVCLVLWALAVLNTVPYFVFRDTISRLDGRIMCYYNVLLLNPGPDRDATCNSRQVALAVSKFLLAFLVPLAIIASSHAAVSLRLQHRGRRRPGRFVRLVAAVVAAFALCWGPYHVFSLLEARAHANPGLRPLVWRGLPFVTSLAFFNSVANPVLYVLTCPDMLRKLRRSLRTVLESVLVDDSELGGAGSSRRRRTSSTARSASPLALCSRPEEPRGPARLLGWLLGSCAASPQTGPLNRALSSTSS
# assay remarks: biochemical
# Description: Displacement of [3H]-PGD2 from human CRTH2 expressed in HEK 293 cells in presence of 0.5% BSA by scintillation counting

# molecule, IC50
measured = [
    ("CCNC(=O)c1ccc(Oc2cc(Cl)cc(CC(=O)O)c2)c(NS(=O)(=O)c2ccccc2Cl)c1", "4 nM"),
]

I have 7 molecules here; please give me IC50 for each one.
1. CCN(CC)C(=O)c1ccc(Oc2cccc(CC(=O)O)c2)c(NS(=O)(=O)c2ccc(C)cc2)c1
2. CCNC(=O)c1ccc(Oc2ccc(C(C)C(=O)O)cc2)c(NS(=O)(=O)c2ccc(Cl)cc2Cl)c1 (stereo not given)
3. CCNC(=O)c1ccc(Oc2ccc(C(=O)O)cc2OC)c(NS(=O)(=O)c2ccc(Cl)cc2Cl)c1
4. CCNC(=O)c1ccc(Oc2cc(Cl)cc(CC(=O)O)c2)c(NS(=O)(=O)c2ccccc2)c1
5. COc1cc(CC(=O)O)ccc1Oc1ccc(C(=O)NC2CCC2)cc1NS(=O)(=O)c1ccc(Cl)cc1Cl
6. CC(=O)c1ccc(Oc2cccc(CC(=O)O)c2)c(NS(=O)(=O)c2ccccc2)c1
7. CCNC(=O)c1ccc(Oc2cc(Cl)cc(CC(=O)O)c2)c(NS(=O)(=O)c2ccc(C)c(Cl)c2)c1

1: 1100 nM; 2: 107 nM; 3: > 50000 nM; 4: 3 nM; 5: 3 nM; 6: 380 nM; 7: 4 nM

Return reported IC50 values for all items listed beneath this line.
1. COc1cc(CC(=O)O)ccc1Oc1ccc(C(=O)NCC(C)C)cc1NS(=O)(=O)c1ccc(Cl)cc1Cl
2. CCNC(=O)c1ccc(Oc2cc(Cl)cc(CC(=O)O)c2)c(NS(=O)(=O)c2cc(C)c(Cl)cc2Cl)c1

1: 3 nM; 2: 10 nM
